GI50 values by entry
Tested on: HCC 2998
Assay: NCI tumour cell line growth inhibition, 48 h
Calls of active or inactive are those of the source. Rule as the data show it: active = GI50 up to about 1.1 µM and inactive = higher.
REPORTED_PROPERTY: GI50

[
  {
    "COMPOUND": "Cc1ccc(C)c(NC2=NC(=O)C(CC(=O)Nc3ccc(Cl)cc3Cl)S2)c1 (configuration not stated)",
    "REPORTED_PROPERTY": "GI50",
    "READING": "46 µM (inactive)"
  },
  {
    "COMPOUND": "Cn1c(=O)nc2n(-c3cc(Cl)ccc3Cl)c3ccccc3nc-2c1=O",
    "REPORTED_PROPERTY": "GI50",
    "READING": "2.68 µM (inactive)"
  },
  {
    "COMPOUND": "COC(=O)CCC(=O)CC(=O)C1=NS(=O)(=O)c2nc(S(N)(=O)=O)c(Cl)cc2N1",
    "REPORTED_PROPERTY": "GI50",
    "READING": "> 100 µM (inactive)"
  },
  {
    "COMPOUND": "N#Cc1c2c(c(Nc3ccc(F)cc3)n3c1nc1ccccc13)CCCC2",
    "REPORTED_PROPERTY": "GI50",
    "READING": "> 100 µM (inactive)"
  },
  {
    "COMPOUND": "COc1ccc2c3c([nH]c2c1)-c1nc2ccccc2c(=O)n1CC3",
    "REPORTED_PROPERTY": "GI50",
    "READING": "> 25 µM (inactive)"
  },
  {
    "COMPOUND": "COc1cc2c(cc1OC)c1c(OC)c(OC)cc3c1c1c2sc(=S)n1CC3",
    "REPORTED_PROPERTY": "GI50",
    "READING": "53.1 µM (inactive)"
  },
  {
    "COMPOUND": "CC(C)(C)OC(=O)N1CCC(NC(=O)NC2CCN(C(=O)OC(C)(C)C)CC2)CC1",
    "REPORTED_PROPERTY": "GI50",
    "READING": "> 100 µM (inactive)"
  },
  {
    "COMPOUND": "COC(=O)C(CCCCNC(=O)CNC(=O)OCc1ccccc1)NC(=O)C(CCCCNC(=O)CNC(=O)OCc1ccccc1)NC(=O)OCc1ccccc1 (configuration not stated)",
    "REPORTED_PROPERTY": "GI50",
    "READING": "52.2 µM (inactive)"
  },
  {
    "COMPOUND": "CN(C)CC1CN=C(N)O1 (configuration not stated)",
    "REPORTED_PROPERTY": "GI50",
    "READING": "> 100 µM (inactive)"
  },
  {
    "COMPOUND": "CCOC(=O)c1c(N2CCCC2)[nH]c(=O)c(C(c2c(O)c(C(=O)OCC)c(N3CCCC3)[nH]c2=O)C(C)C)c1O",
    "REPORTED_PROPERTY": "GI50",
    "READING": "52.8 µM (inactive)"
  },
  {
    "COMPOUND": "COC(=O)C1=CC2OC1(C)CCC2=O (configuration not stated)",
    "REPORTED_PROPERTY": "GI50",
    "READING": "> 100 µM (inactive)"
  },
  {
    "COMPOUND": "CC(C)COC(=O)N1N=NC2C3CC(=O)C(O3)C21 (configuration not stated)",
    "REPORTED_PROPERTY": "GI50",
    "READING": "> 100 µM (inactive)"
  }
]
